Assay: yeast display, Sf9 membrane polyspecificity reagent, FACS + sequencing; frameworks hold sequencing errors
Outcome measure: polyreactivity (PSR sort gate)

>  <Residue codes>
QVQLVESGGGLVQAGGSLRLSCAASGFTTNYYARGWYRQAPGKERELVAAITTGGSTHYADSVKGRFTISRDNAKNTVYLQMNSLKPEDTAVYYCAAGTNRQQQRYFHHGGYYQYNYWGQGTQVTVSS

>  <Result>
low polyreactivity

$$$$
>  <Residue codes>
QVQLVESGGGLVQAGGSLRLSCAASGSSFNRYAMGWYRQAPGKERELVAGISYRGGTYYADSVKGRFTISRDNAKNTVYLQMNSLKPEDTAVYYCNVVRRGTTSYDDYDYWGQGTQVTVSS

>  <Result>
high polyreactivity

$$$$
>  <Residue codes>
QVQLVESGGGLVQAGGSLRLSCAASGSTFYRNARAWYRQAPGKERELVAGISYGGGSTYYADSVKGRFTISRDNAKNTVYLQMNSLKPEDTAVYYCNAVWVKRHYYYWGQGSQVTVSS

>  <Result>
low polyreactivity

$$$$
>  <Residue codes>
QVQIVESGGGLVQAGGSLRLTCAASGYIFKYYAMGWYRQAPGKERELVAAITIGGNTNYADSVKGRFTISRDNAKNTVYLQMNSLKPEDTAVYYCATGGYYSAIVYGGYDYWGQGTQVTVSS

>  <Result>
low polyreactivity

$$$$
>  <Residue codes>
QVQLVESGGGLVQAGGSLRLSCAASGSTINWNAMGWYRQAPGKERELVASINRGDSTYYADSVKGRFTISRDNAKNTVYLQMNSLKPEDTAVYYCAARRYYSLRTFLYCFSKYDYWGQGTQVTVSS

>  <Result>
high polyreactivity

$$$$
>  <Residue codes>
QVQLVESGGGLVQAGGSLRLSWAASGLIFSSNAMGWYRQAPGKERDLVAAITRSGGSTYYADSVKGRFTISRDNAKNTVYLQMNSLKPEDTAVYYCAARYSQRGITFYYWGQGTQVTVSS

>  <Result>
high polyreactivity

$$$$
>  <Residue codes>
QVQLVESGGGLVQAGGSLRLSCAASGFIFYKNAMGWYRQAPGKERELVAAINFSTGRTYYADSVKGRFTISRDNAKNTVYLQMNSLKPEDTAVYDCATKSANPRKYYYWGQVTQVTVSS

>  <Result>
high polyreactivity

$$$$
>  <Residue codes>
QVQIVESGGGLVQAGGSLRLSCAASGRIRSYAMGWYRQAPGKERELVAAISSRGGSTYYADSVKGRFTISRDNAKNTVYLLMNSLKPEDTAVYYCAKGGYCGQGTQVTVSS

>  <Result>
high polyreactivity

$$$$
>  <Residue codes>
QVQLVESGGGLVQAGGSLRLSCAASGRILTYYAMGWYRQAPGKERELVAAISWRAGYTYYADSVKGRFTISRDNAKNTVYLQMNSLKPEDTAVYYCAAETSNRGRRYYYWGQGTQVTVSS

>  <Result>
high polyreactivity

$$$$
>  <Residue codes>
QVQLVESGGGIVQAGRSLRLSCSASGFIFAIKAMGWYRQAPGKERELVAAITGGGSTSYADSVKGRFTISRDNAKNTVYLQMNSLKPEDTAVYYCATDRLTYTKYGYWGQGTQVTVSS

>  <Result>
low polyreactivity

$$$$

--- query ---
Item QVQLVESGGRLVQAGGSIRLSCAASGRIFGAYAMGWYRQAPGKERELVAAITQSGGSTFYADSVKGRFTISRDNAKNTVYLQMNSLKPEVTAVYYWGQGTQVTVSS : provide polyreactivity (PSR sort gate) low polyreactivity

meta.source: the nanobody polyreactivity screen of Harvey et al. (2022)
